In this section, each of the compounds is paired with its reported LE (ligand efficiency).
assay-system: endothiapepsin (EP) (Cryphonectria parasitica)
Sequence (P11838 90-419): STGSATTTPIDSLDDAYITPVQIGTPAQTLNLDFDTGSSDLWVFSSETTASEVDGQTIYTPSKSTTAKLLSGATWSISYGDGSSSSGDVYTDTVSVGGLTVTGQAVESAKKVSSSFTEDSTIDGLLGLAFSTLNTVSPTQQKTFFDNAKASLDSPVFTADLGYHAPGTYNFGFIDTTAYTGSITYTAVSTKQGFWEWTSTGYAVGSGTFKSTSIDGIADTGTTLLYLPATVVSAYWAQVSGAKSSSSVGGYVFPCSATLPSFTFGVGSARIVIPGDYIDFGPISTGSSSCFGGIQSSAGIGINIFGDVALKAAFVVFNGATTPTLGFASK
protocol-notes: Isothermal titration calorimetry (direct or SAP114-displacement titration) against EP
Assay type: binding
condition-set: from ITC Kd

- compound: "CC(SC(=N)N)c1ccc(Cl)cc1 (centres unmarked) [FU290-2]"
  reading-unit: "kcal mol^−1 per atom"
  LE (ligand efficiency): 0.40
- compound: "N=C1N=C(N)c2ccccc21 [FU5-2]"
  reading-unit: "kcal mol^−1 per atom"
  LE (ligand efficiency): 0.37
- compound: "N=C(N)N/N=C1\\N=C(N)c2ccccc21 [FU5-4]"
  reading-unit: "kcal mol^−1 per atom"
  LE (ligand efficiency): 0.31
- compound: "CSc1ccc(CN(CCO)Cc2cc(C)nn2C)cc1 [FU58-3]"
  reading-unit: "kcal mol^−1 per atom"
  LE (ligand efficiency): 0.19
- compound: "NC1=NC(=O)c2ccccc21 [FU5-3]"
  reading-unit: "kcal mol^−1 per atom"
  LE (ligand efficiency): 0.39
- compound: "N=C(N)SCc1ccc(CSC(=N)N)cc1 [FU290-1]"
  reading-unit: "kcal mol^−1 per atom"
  LE (ligand efficiency): 0.44
- compound: "Oc1nc(-c2ccco2)ccc1CN(Cc1ccccn1)C1CC1 [FU66-1]"
  reading-unit: "kcal mol^−1 per atom"
  LE (ligand efficiency): 0.21
- compound: "Cc1noc(C)c1CN(C)Cc1cc2n(n1)CCN(c1cc(N)ncn1)C2 [FU58-1]"
  reading-unit: "kcal mol^−1 per atom"
  LE (ligand efficiency): 0.17
